Test system: OVCAR-4
Experiment: NCI tumour cell line growth inhibition, 48 h
Active and inactive are the calls of the source. Cut-off read from the data, not from the text of the source: active = GI50 up to about 1.1 µM and inactive = higher.
Respond with a class label; see true (1) for active, false (0) for inactive

Worked set:
{"columns": ["COMPOUND", "GROUP LABEL"],
 "data": [
  ["C=C1c2ccccc2N(S(=O)(=O)c2ccc(C)cc2)C12CCCCC2", "false (0)"],
  ["O=C(O)c1c(CC(Cc2ccccc2)C(=O)O)ccc2c1CCC2 (stereo not given)", "false (0)"],
  ["CCOC(=O)c1c(Nc2ccccc2)sc2cccnc12", "false (0)"],
  ["N#CCCc1nc2ccc(Br)cc2c(=O)n1-c1ccc(O)c([N+](=O)[O-])c1", "false (0)"],
  ["Cc1cc2c(=O)[nH]nc(N)c2c(N)n1", "false (0)"]
]}

[ask] Record lookup: outcome of this test for O=C(NNc1ccc([N+](=O)[O-])cc1[N+](=O)[O-])/C(O)=C\C(=O)c1ccccc1 ?
[reply] false (0)

[ask] Lab log entry: CCOC(=O)c1cnc(-n2[nH]c(C)c(CCO)c2=O)[nH]c1=O — outcome as called in the assay?
[reply] false (0)

[ask] Recorded call for COc1ccc(C(=O)/C=C/c2ccncc2)cc1OC ?
[reply] false (0)

[ask] Hi team, can someone confirm the assay call for O=C(Cc1ccccc1)Oc1ccc2c(-c3ccccc3)c(C(=O)Nc3ccc(Cl)cc3)c(=O)oc2c1 ?
[reply] false (0)

[ask] # lookup: test call for COC(=O)C1CCC[C@H]2C(CO)=C(C)C(=O)[C@@H]12 (stereo not given in full)
[reply] false (0)

* * *

Test system: SF-268
Assay: NCI tumour cell line growth inhibition, 48 h
The source made the active and inactive calls. No stated cut-off is given here; in the data, active = GI50 up to about 1.1 µM and inactive = higher.
Select the matching outcome among 1 (yes) = active, 0 (no) = inactive

{"columns": ["COMPOUND SMILES", "GROUP LABEL"],
 "data": [
  ["COc1ccccc1CNCCCCCNCCCCCCCCCCNCCCCCNCc1ccccc1OC", "0 (no)"]
]}

[ask] Hi, do you know how CC(C)=CCC[C@@H](C)C1=C(O)C(=O)C(C)=C(Nc2ccccc2Cl)C1=O came out in this test?
[reply] 0 (no)

[ask] Given CCCN(CCC)C(=S)N/N=C/c1ccccn1 , state the outcome it received in this test.
[reply] 1 (yes)

* * *

Test system: UACC-62
Assay: NCI tumour cell line growth inhibition, 48 h
Active and inactive are the calls of the source. No stated cut-off is given here; in the data, active = GI50 up to about 1.1 µM and inactive = higher.
MEASURE: GI50

{"columns": ["MOLECULE", "RESULT"],
 "data": [
  ["C#C[C@]1(O)CC[C@H]2[C@@H]3CCC4=C/C(=N/NC(=O)c5cccc6cc7ccccc7nc56)CC[C@@H]4[C@H]3CC[C@@]21CC", "95.5 µM (inactive)"],
  ["C[N+](C)(CCNC(=O)c1cccc2cc3ccccc3nc12)Cc1ccc([N+](=O)[O-])s1", "> 25 µM (inactive)"],
  ["Cn1c(=O)c2c(nc3sc4c(n32)C(=O)c2c(O)ccc(O)c2C4=O)n(C)c1=O", "4.73 µM (inactive)"],
  ["[N-]=[N+]=NC1(N=[N+]=[N-])C(=O)NN=C(c2ccccc2)C1=O (stereo unspecified)", "57.7 µM (inactive)"]
]}

Fill in GI50 for each of the 3 molecules listed.
1. Cc1cc(C#N)c(Nc2c(C)cccc2[N+](=O)[O-])s1
2. CC1(C)CCC[C@]2(C)[C@@H]1CC[C@@]13O[C@@H]1C1=C(CO)C(=O)OC1=C[C@@H]23
3. COc1ccc2nc(C)cc(NCCCCCCCCCNc3cc(C)nc4ccc(OC)cc34)c2c1

[reply]
1: 37.9 µM (inactive); 2: 13.5 µM (inactive); 3: 2.83 µM (inactive)

Would you mind giving GI50 for every molecule in the list below?
1. O=C1Nc2ccccc2/C1=N/NC(=S)Nc1ccc(Cl)cc1
2. C=CCOC1CC(n2cnc3c(N)ncnc32)OC1CO (stereo unspecified)

[reply]
50.7 µM (inactive)
> 100 µM (inactive)
